- System: Mus musculus
- test_description: Anticonvulsant activity in Swiss albino mouse assessed as protection against scPTZ-induced tonic-clonic seizures at 100 mg/kg, ip measured after 4 hrs relative to control
- Format: functional, organism-based
- Set-up: dose 100 mg/kg
Calls of active or inactive are those of the source. No cut-off for these calls is given here.
Classes to choose from: active, inactive

Consider the worked cases shown below.
CC(C)(O)C(=O)NC1CCCCC1	inactive
CC1(C)OS(=O)(=O)N(CCc2ccccc2)C1=O	active
CCCCNC(=O)C(C)(C)O	active
CCCCN1C(=O)C(C)(C)OS1(=O)=O	active
CC1(C)OS(=O)(=O)N(Cc2ccccc2)C1=O	inactive
CC(C)(O)C(=O)NCc1ccccc1	active

# input Any idea what this test logged for CCCNC(=O)C(C)(C)O ?
# output inactive

# input Any idea what this test logged for CC(C)(O)C(=O)NCCc1ccccc1 ?
# output active

# input Any idea what this test logged for CCCN1C(=O)C(C)(C)OS1(=O)=O ?
# output inactive

# input Any idea what this test logged for CCCCNC(=O)C(O)(c1ccccc1)c1ccccc1 ?
# output inactive

====

Item-by-item account of ED50
- System: Mus musculus
- test_description: Anticonvulsant activity in ip dosed Swiss albino mouse assessed as protection against maximal electric shock-induced tonic-clonic seizures measured up to 4 hrs
- Format: functional
Your reply should be a number followed by the unit it is expressed in.

Known results for compounds:
CC(C)(O)C(=O)NC1CCCCC1	25.2 mg/kg
CCCCNC(=O)C(C)(C)O	44.6 mg/kg
CC(C)(O)C(=O)NCc1ccccc1	9.1 mg/kg
CC(C)(O)C(=O)NCCc1ccccc1	53.9 mg/kg
O=C1NC(=O)C(c2ccccc2)(c2ccccc2)N1 [PHENYTOIN]	5.54 mg/kg

Record CC1(C)OS(=O)(=O)N(CCc2ccccc2)C1=O , field ED50: 91.1 mg/kg

Record CCCCN1C(=O)C(C)(C)OS1(=O)=O , field ED50: 0.06 mg/kg

Record CC1(C)OS(=O)(=O)N(Cc2ccccc2)C1=O , field ED50: 15.1 mg/kg

Record CN1C(=O)OC(C)(C)C1=O [TRIMETHADIONE] , field ED50: 627 mg/kg

====

- Test system: Mus musculus
- test_description: Anticonvulsant activity in Swiss albino mouse assessed as protection against scPTZ-induced tonic-clonic seizures at 30 mg/kg, ip measured after 4 hrs relative to control
- Type: functional, organism-based
- Parameters: dose 30 mg/kg
The source made the active and inactive calls. The calls are words filed in the database; no cut-off is given here.
Classes to choose from: active, inactive

CCCN1C(=O)C(C)(C)OS1(=O)=O	inactive
CC1(C)OS(=O)(=O)N(Cc2ccccc2)C1=O	inactive
CCCCNC(=O)C(O)(c1ccccc1)c1ccccc1	inactive
CC(C)(O)C(=O)NCCc1ccccc1	inactive
CC1(C)OS(=O)(=O)N(CCc2ccccc2)C1=O	inactive
CC(C)(O)C(=O)NC1CCCCC1	inactive

Kindly consider the entry below.
# input Any idea what this test logged for CCCCN1C(=O)C(C)(C)OS1(=O)=O ?
# output active
